Quick reference for Emax among some compounds
Molecular target: human muscarinic M2 receptor (Homo sapiens, UniProt P08172)
Sequence (P08172 1-466): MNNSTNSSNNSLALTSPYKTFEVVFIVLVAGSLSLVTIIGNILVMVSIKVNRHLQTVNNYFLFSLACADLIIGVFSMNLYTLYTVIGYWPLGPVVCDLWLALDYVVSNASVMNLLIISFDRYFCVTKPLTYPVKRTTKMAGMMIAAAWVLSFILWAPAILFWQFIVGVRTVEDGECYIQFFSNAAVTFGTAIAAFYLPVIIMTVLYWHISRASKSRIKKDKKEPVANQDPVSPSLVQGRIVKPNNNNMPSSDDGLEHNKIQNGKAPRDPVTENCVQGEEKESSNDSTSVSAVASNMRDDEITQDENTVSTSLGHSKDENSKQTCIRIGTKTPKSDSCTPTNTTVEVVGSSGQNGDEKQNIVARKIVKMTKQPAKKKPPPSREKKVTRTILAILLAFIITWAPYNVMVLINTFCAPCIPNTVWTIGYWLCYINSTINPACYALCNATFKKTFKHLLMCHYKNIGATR
Experiment: Alphascreen Surefire phospho-ERK1/2 functional assay, M2
Type: cell-based
Conditions: CHO, read-out: % Emax cf. ACh (M2), CHO cells stably expressing human M2, relative to ACh
quantity: Emax (%)

>>> reported_result("CCOC(=O)N1CCC2(CC(N3CCC(N(CC)OC)CC3)C2)C1 (single isomer, unassigned) [2-57 Isomer 2]")
11
>>> reported_result("[2H]C([2H])(C)OC(=O)N1CCC2(CC(N3CCC(N(CC)C(C)=O)CC3)C2)C1 (single isomer, unassigned) [2-38 Isomer 2]")
21
>>> reported_result("CCOC(=O)N1CCC2(CC(N3CCC(OC(C)c4ccccc4)CC3)C2)C1 (single isomer, unassigned) [2-66 Isomer 2]")
17
